- Experimental system: Biotinylated CoV2 Spike ECD PreS-AVI protein (SARS-CoV-2, UniProt P0DTC2 14-1208)
- Test: Octet binning; competitor 11F8
Measure: binning response

Binder	Result number
19C10 VHH-Fc (Fc fusion) QVQLVESGGGLVQPGGSLRLSCAASGFTLDLNSIGWFRQAPGKEREGVSCISPSASSTHYADSVKGRFTISRDNAKNTVYLQMNSLKPEDTAVYYCATGTPSYHYCSMYGLEYDDWGQGTQVTVSS	0.12
9B2 VHH-Fc (Fc fusion) QVQLVESGGGLVQPGGSLRLSCAASGFTLDNYAIGWFRQAPGKEREGVSCISSSDGDTQYADSVKGRFTISRDNAKNTVYLQMNSLKPEDTAVYYCAVEKVYARSWFFHLCSELDFGSWGQGTQVTVSS	0.11
19E10 VHH-Fc (Fc fusion) QVQLVESGGGLVQPGGSLRLSCVASGSTISINSMGWYRQAPGKAREMVATITNDGPIKYADPVKGRFTISRDNPKNTVYLQMNSLKPEDTAVYYCVADRAYWLAGEWEYWGQGTQVTVSS	0.12
10B8 VHH-Fc (Fc fusion) QVQLVESGGGLVQPGGSLRLSCAASGITLDYYAIAWFRQAPGKEREGVSCFCSSDGDIRYADSVKGRFTISRDNAKNTVYLQMNSLKPEDTAVYYCATERVYSSTWFFHRYSELDFGSWGRGTQVTVSS	0.1
13C8 VHH-Fc (Fc fusion) QVQLVESGGGLVQAGGSLRLSCAASGRTVNKYMTGWFRQTPGKEREFVASIDWSSTTTHYANSVKGRFTISRDKVKNTVYLQMNGLKPEDTAVYYCAAHQDSSYGYTILPIDYDSWGQGTQVTVSS	0.11
5D7 VHH-Fc (Fc fusion) QVQLVESGGGLVQAGGSLRLSCAASGRTGSRYIMGWFRQAPGKEREFVAAINWRGDSTYYADSVKGRFTIARDNAKNTAYLQMNSLKPEDTAVYYCVADRGESYYYTRSTEYTYWGQGTQVTVSS	0.12
11F8 VHH-Fc (Fc fusion) QVQLVESGGGLVQAGGSLRLSCAASGRTVGYYAVGWFRQAPGKERDFVAAISWSGRNTNYADSVTGRFTIFRDNAKNTVDLQMNSLKPEDTAVYYCAADYWNYGSGSEVPNNYDTWGQGTQVTVSS	0.14
